The following molecules are shown together with reported Her2 level values.
Target Or Test System: Receptor tyrosine-protein kinase erbB-2 (Homo sapiens) (UniProt P04626)
Sequence (P04626 whole entry, looked up): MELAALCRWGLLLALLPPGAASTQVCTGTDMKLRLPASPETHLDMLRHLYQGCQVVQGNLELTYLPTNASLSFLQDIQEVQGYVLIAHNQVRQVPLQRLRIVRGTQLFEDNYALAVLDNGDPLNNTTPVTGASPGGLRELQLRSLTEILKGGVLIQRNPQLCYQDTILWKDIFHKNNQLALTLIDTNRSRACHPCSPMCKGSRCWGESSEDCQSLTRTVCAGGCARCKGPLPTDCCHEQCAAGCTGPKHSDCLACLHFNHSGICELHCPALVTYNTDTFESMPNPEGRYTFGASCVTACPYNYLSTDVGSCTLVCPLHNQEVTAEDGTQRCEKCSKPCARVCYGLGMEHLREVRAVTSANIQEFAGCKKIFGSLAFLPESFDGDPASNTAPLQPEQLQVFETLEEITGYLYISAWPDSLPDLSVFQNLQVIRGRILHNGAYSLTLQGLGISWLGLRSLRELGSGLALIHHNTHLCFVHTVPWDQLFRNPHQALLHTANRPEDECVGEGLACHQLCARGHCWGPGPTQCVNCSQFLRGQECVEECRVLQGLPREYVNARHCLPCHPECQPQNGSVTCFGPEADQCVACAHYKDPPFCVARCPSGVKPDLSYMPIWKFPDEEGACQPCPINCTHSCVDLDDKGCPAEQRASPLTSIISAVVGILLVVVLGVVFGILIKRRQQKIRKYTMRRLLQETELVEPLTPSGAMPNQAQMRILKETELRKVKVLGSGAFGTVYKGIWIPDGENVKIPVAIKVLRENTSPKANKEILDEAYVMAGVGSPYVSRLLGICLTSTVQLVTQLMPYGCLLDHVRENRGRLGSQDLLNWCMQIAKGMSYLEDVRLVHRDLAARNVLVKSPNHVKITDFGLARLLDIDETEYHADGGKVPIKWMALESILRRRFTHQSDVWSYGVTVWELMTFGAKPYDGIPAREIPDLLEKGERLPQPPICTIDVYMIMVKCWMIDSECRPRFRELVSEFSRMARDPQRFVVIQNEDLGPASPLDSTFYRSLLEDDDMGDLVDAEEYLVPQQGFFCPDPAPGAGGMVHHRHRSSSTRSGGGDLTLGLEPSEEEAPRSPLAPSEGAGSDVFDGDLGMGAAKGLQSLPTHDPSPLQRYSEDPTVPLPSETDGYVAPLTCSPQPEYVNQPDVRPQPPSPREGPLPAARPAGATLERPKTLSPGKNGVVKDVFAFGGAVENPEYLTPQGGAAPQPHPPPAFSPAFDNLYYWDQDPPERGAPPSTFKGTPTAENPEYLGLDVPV
Test Name: reducers of endogenous Her2 protein level, primary screen, SKBR3 breast tumor cells, AlphaScreen, ATP viability (AID 461);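 also: lower value means less Her2 protein in the cells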
Run Parameters: 18-24 h, at 10 µM, hits give low values
A number alone suffices; assume %.

Below, 5 molecules whose answers are already recorded.
>  <Molecule>
COc1ccccc1N1C(=O)CC(Sc2nc(C)cc(C)n2)C1=O (stereo not given)

>  <Her2 level [%]>
96.5

$$$$
>  <Molecule>
Cc1nc2ccccn2c1C(=O)NCCCN1CCOCC1

>  <Her2 level [%]>
94.5

$$$$
>  <Molecule>
CN(C(=O)COC(=O)C1CCN(S(=O)(=O)c2cccs2)CC1)C1CCS(=O)(=O)C1 (stereo not given)

>  <Her2 level [%]>
127

$$$$
>  <Molecule>
N#CC1=C(N)SC(N)=C(C#N)C1c1ccc(C(F)(F)F)cc1

>  <Her2 level [%]>
104

$$$$
>  <Molecule>
CC(=O)N1CCN(C(C)=O)C1c1ccccc1

>  <Her2 level [%]>
136

$$$$

Inquiry: Tell me measured Her2 level for O=S(=O)(c1ccc(-c2csc(-c3cccnc3)n2)cc1)N1CCCCC1 please.
Reply text: 102
